These entries and their values trace back to PubChem BioAssay (NCI).

Reported growth values for a set of compounds
Tested on: SK-MEL-5 melanoma
Assay: NCI-60 one-dose screen, 48 h (100 = growth as untreated, 0 = no growth, -100 = all killed)
Conditions: 10 µM unless noted
This is part of a sample that, as a whole, favours compounds with a hit. Of some 83,000 tested, about 20% had one in any assay.
Please state the figure in %; there is no need to write the unit.

Nc1ccc(-c2cc3c(Nc4ccc(OCc5cccc(F)c5)c(Cl)c4)ncnc3s2)cc1    57.7
CCN(CCO)CC(=O)c1cc(Cl)cc(Cl)c1Cl    105
C[C@H]1[C@H](C)CC[C@]2(C(=O)N3CCN(C)CC3)CC[C@]3(C)C(=CC[C@@H]4[C@@]5(C)C/C(=C/c6cccnc6)C(=O)C(C)(C)[C@@H]5CC[C@]43C)[C@H]12    -97.6
COc1ccc(/C=N/NC(=O)Cn2c(-c3ccc(S(C)(=O)=O)cc3)nc3cc(Cl)ccc32)cc1    12.7
Nc1nc(I)c2ncn(C3OC(CO)C(O)C3O)c2n1 (centres undefined)    102

In: Report growth, nothing else, for this compound: Cc1nc2ccc(C(=O)NCc3cc(C(=O)O)c(C)o3)cc2nc1C
Out: 105

In: Report growth, nothing else, for this compound: CC(C)OC(=O)NNC(=O)c1ccncc1
Out: 114

In: Report growth, nothing else, for this compound: CC(C)(C)c1ccc(C(=O)Nc2sc3c(c2C(N)=O)CCC(=O)C3)cc1
Out: -81.2

In: Report growth, nothing else, for this compound: NS(=O)(=O)Oc1ccc(NC(=O)C23CC4CC(CC(C4)C2)C3)cc1Cl
Out: 91.1

###

System: K-562 leukemia
Test: NCI-60 one-dose screen, 48 h
Conditions: 10 µM unless noted
Compounds without any hit were thinned out: in the full panel of roughly 83,000, 20% have a hit. Activity calls are given as the source filed them. The calls were made as follows: active = growth percent below 10; inactive = the rest.
Thanks in advance; please answer with one of these: active, inactive

Here are 9 compounds together with their reported answers.
COc1ccc(-c2cn(-c3cccc(C(=O)/C=C/c4cc(OC)c(OC)c(OC)c4)c3)c(=O)[nH]2)cc1    active
CCN(CC)CCCNC(=O)c1ccc(N)cc1    inactive
O=[N+]([O-])c1ccccc1C(O)Cc1ccc2ccccc2n1 (stereo not given)    inactive
O=S(=O)(Cc1ccccc1)c1nc2ccccc2s1    inactive
CC(=O)c1cc2c(o1)C(=O)c1ccccc1C2=O    active
O=C(Nc1cccc2[nH]c(C(F)(F)F)nc12)c1cc(Cl)ccc1Cl    inactive
CCOC(=O)C(=CNc1ccccc1[N+](=O)[O-])C(=O)OCC    inactive
NC(=S)c1csc(CCNC(=O)c2ccccc2)n1    inactive
COc1ccc(/C(C)=C(\c2ccc(Cl)cc2)c2ccc(OCCN3CCCCC3)cc2)cc1F    active

We now examine a further compound.
In: Outcome? CN(C)CCN1C(=O)c2cccc3c(-c4ccc(-c5nc6c7ccccc7c7ccccc7c6[nH]5)cc4)ccc(c23)C1=O
Out: inactive

###

Test system: HCT-15 colon
Assay: NCI-60 one-dose screen, 48 h (100 = growth as untreated, 0 = no growth, -100 = all killed)
Settings: 10 µM unless noted
Description: Growth inhibition of the HCT-15 human tumor cell line is measured as a screen for anti-cancer activity. Cells are grown in 96 well plates and exposed to the test compound for 48 hours. Compounds are tested at a single concentration, which is 10^-5 M for most compounds. The reported endpoint is percent growth (GI% or GIPRCNT), where numbers from 0 - 100% represent growth inhibition, and numbers from -100% - 0 represent cell death. For example, a value of 40 represents 60% growth inhibition. […]
This is part of a sample that, as a whole, favours compounds with a hit. Of some 83,000 tested, about 20% had one in any assay. Calls of active or inactive are those of the source. Rule for the calls: active = growth percent below 10; inactive = the rest.
Reported growth values for a set of compounds

Reference set, count: 3
NC(=Nc1ccc(N)cc1)C(N)=Nc1ccc(N)cc1    98.5% (inactive)
Cn1cc(Nc2nccc(-c3ccc(N4CCCC4)c(C#N)c3)n2)cn1    21.3% (inactive)
CC(/C=N/NC(=O)c1cc(-c2ccco2)[nH]n1)=C\c1ccccc1    93.2% (inactive)

Switching to the query record.
In: Report growth, nothing else, for this compound: c1ccc2[nH]c(SSc3nc4ncncc4[nH]3)nc2c1
Out: 26.9% (inactive)

###

Test system: CCRF-CEM leukemia
Test: NCI-60 one-dose screen, 48 h
Settings: 10 µM unless noted
This is part of a sample that, as a whole, favours compounds with a hit. Of some 83,000 tested, about 20% had one in any assay. The source made the active and inactive calls. How the source made its calls: active means growth percent below 10; inactive means the rest.
Thanks in advance; please answer with one of these: active, inactive

Here are 6 molecules together with their reported answers.
CC(=O)C(C(C)=O)c1nc2sc3cc(Cl)ccc3n2c(=N)c1C#N    inactive
C[C@@H]1C(=O)N(C[C@@H](Cc2ccccc2)NC(=O)OCc2ccccc2)[C@]1(Cc1ccccc1)C(=O)OCc1ccccc1    inactive
C=CCO[C@H]1CO[C@H]2[C@@H]1OC[C@@H]2Oc1ccc(Nc2ccnc(Nc3ccc(O[C@H]4CO[C@H]5[C@@H]4OC[C@@H]5OCC=C)c(Cl)c3)n2)cc1Cl    active
COc1ccc(CN2C(=O)/C(=C\c3cc(OC)c(OC)c(OC)c3)c3ccccc32)cc1    active
C=C1C(=O)O[C@H]2[C@H]1CC/C(COC(=O)/C=C/C(=O)NCc1ccc(Cn3c(=O)sn(-c4ccccc4)c3=O)cc1)=C\CC[C@@]1(C)O[C@@H]21    active
CCN(CC)CCOc1ccc(/C(=C(\C)c2ccc(OC)c(F)c2)c2ccc(Cl)cc2)cc1    inactive

In: Outcome? Cc1nc2ccc(C(=O)NCc3cc(C(=O)O)c(C)o3)cc2nc1C
Out: inactive

In: Outcome? Cc1cnc(Nc2ccc(N3CCN(C)CC3)cc2)nc1Nc1ccc(Cl)c(NS(=O)(=O)C(C)(C)C)c1
Out: inactive

###

System: HCT-15 colon
Test: NCI-60 one-dose screen, 48 h
Conditions: 10 µM unless noted
This is part of a sample that, as a whole, favours compounds with a hit. Of some 83,000 tested, about 20% had one in any assay. The source made the active and inactive calls. Rule for the calls: active = growth percent below 10; inactive = the rest.
Thanks in advance; please answer with one of these: 1.0 for active, 0.0 for inactive

COc1ccc(/C(C)=C(\c2ccc(Cl)cc2)c2ccc(OCCN3CCCCC3)cc2)cc1F    1.0

We now examine a further compound.
In: Outcome? O=C1Nc2ccccc2/C1=N/N=C/c1c[nH]c2ccccc12
Out: 0.0

###

Test system: NCI-H23 lung
Test: NCI-60 one-dose screen, 48 h (100 = growth as untreated, 0 = no growth, -100 = all killed)
Conditions: 10 µM unless noted
Compounds without any hit were thinned out: in the full panel of roughly 83,000, 20% have a hit.
Reported growth values for a set of compounds
Please state the figure in %; there is no need to write the unit.

CC(C)n1nc(C#Cc2cccc(NC(=O)c3cccc(C(F)(F)F)c3)c2)c2c(N)ncnc21    -3.4

In: Tell me its growth on NCI-H23 lung: Cc1nn(Cc2ccccc2)cc1C(=O)Nc1sc2c(c1C(N)=O)CCC(=O)C2
Out: 12.6

In: Tell me its growth on NCI-H23 lung: COc1cc2c(c(OC)c1OC)C(=O)/C(=C/c1cc(C)c(O)c(C)c1)S2
Out: 36.9

In: Tell me its growth on NCI-H23 lung: Cc1ccc(-n2nnc(C3=NCCc4c3[nH]c3ccc(Cl)cc43)c2C)cc1
Out: 80.6

In: Tell me its growth on NCI-H23 lung: N=C(N)c1ccc(-c2ccc(-c3ccc(Cl)cc3Cl)o2)cc1
Out: 3.61

In: Tell me its growth on NCI-H23 lung: O=[N+]([O-])c1ccc2[nH]cc(-c3c4ccsc4cc4[nH]c5ccc([N+](=O)[O-])cc5c34)c2c1
Out: 7.93

In: Tell me its growth on NCI-H23 lung: Cc1ccc(Nc2ccc(Nc3ccc(C)cc3S(=O)(=O)O)c3c2C(=O)c2ccccc2C3=O)c(S(=O)(=O)O)c1
Out: 97.2

In: Tell me its growth on NCI-H23 lung: O=C(NCc1cccnc1)c1cc(-c2csc3c(=O)cc(N4CCOCC4)oc23)cc2c1OCCO2
Out: 50.3

In: Tell me its growth on NCI-H23 lung: Cn1ccnc1C(=O)/C=C/c1ccc(C(=O)Nc2ccc(S(F)(F)(F)(F)F)cc2)cc1
Out: 17.8

###

System: HOP-62 NSCLC
Assay: NCI-60 one-dose screen, 48 h (100 = growth as untreated, 0 = no growth, -100 = all killed)
Conditions: 10 µM unless noted
The panel holds about 83,000 compounds, 20% with a hit somewhere; the sample as a whole holds those more often.
growth vs 70%: at or above is 1 (yes), below is 0 (no).

Here are 8 compounds together with their reported answers.
O[C@H]1CO[C@H]2[C@@H]1OC[C@@H]2Oc1ccc(Nc2nc(Nc3ccc(F)c(Cl)c3)ncc2F)cc1Cl    1 (yes)
CCOC(=O)c1sc2ccc(NCc3nc[nH]c3C)cc2c1NC(=O)c1cc(OC)c(OC)c(OC)c1    1 (yes)
N#Cc1c(N)nc2c(nnn2-c2cccc(Br)c2)c1N    1 (yes)
COc1ccc(-c2nc3sc4c(c3c(=O)[nH]2)CCCC4)c2ccccc12    0 (no)
c1ccc2[nH]c(SSc3nc4ncncc4[nH]3)nc2c1    0 (no)
COc1ccc(C2=NC(=O)NC2c2ccc(OC)cc2)cc1 (centres undefined)    0 (no)
C=C(C)[C@@H]1CC[C@]2(CO)CC[C@]3(C)[C@H](CC[C@@H]4[C@@]5(C)C=C(C#N)C(=O)C(C)(C)[C@@H]5CC[C@]43C)[C@@H]12    0 (no)
CC1=CC(=O)C(C(C)C)=CC1=Nc1cc(Br)c(O)c(Br)c1    0 (no)

In: Has COC(=O)Nc1nc2ccc(C(=O)C3CC3)cc2[nH]1 a recorded growth greater than or equal to 70%?
Out: 0 (no)

In: Has NS(=O)(=O)Oc1ccc(-c2sc3cc(O)ccc3c2C(=O)c2ccc(OCCN3CCCCC3)cc2)cc1 a recorded growth greater than or equal to 70%?
Out: 0 (no)

In: Has Cc1cc(C(c2ccccc2)c2ccccc2)ccc1NS(=O)(=O)c1ccccc1 a recorded growth greater than or equal to 70%?
Out: 1 (yes)

In: Has CN1CCN(c2ccc(Nc3ncc(Cl)c(NC[C@@H]4CCCO4)n3)cc2)CC1 a recorded growth greater than or equal to 70%?
Out: 0 (no)

In: Has CCCN1CCN(c2ccc3nc(-c4ccc5nc(-c6cc(OC)c(OC)c(OC)c6)[nH]c5c4)[nH]c3c2)CC1 a recorded growth greater than or equal to 70%?
Out: 1 (yes)

In: Has O=C(/C=C/C12c3ccccc3C(c3ccccc31)C1C(=O)NC(=O)C12)c1ccccc1 (centres undefined) a recorded growth greater than or equal to 70%?
Out: 0 (no)

In: Has Nc1ccc2c(S(=O)(=O)O)ccc(S(=O)(=O)O)c2c1 a recorded growth greater than or equal to 70%?
Out: 1 (yes)

In: Has COc1ccc(OC)c(Nc2nc3nonc3nc2Nc2cccc(Br)c2)c1 a recorded growth greater than or equal to 70%?
Out: 0 (no)

In: Has COc1cc(/C=C/C(=O)c2cccc(-n3cc(-c4ccc(Cl)cc4)[nH]c3=O)c2)cc(OC)c1OC a recorded growth greater than or equal to 70%?
Out: 1 (yes)

In: Has Clc1ccc(/C=N\N=c2\scc(-c3ccc(Cl)cc3)n2/N=C/c2ccc(Cl)cc2)cc1 a recorded growth greater than or equal to 70%?
Out: 1 (yes)
